- Test system: SJCRH30 (human alveolar rhabdomyosarcoma) cells
- test: MTT cell viability assay in SJCRH30 cells
- Type: cell-based
- conditionSet: SJ-S drugs, SJCRH30 cells, 24 h, read-out: IC50(μM) RMS
parameterMeasured: IC50 (µM)
Please reply with the bare figure in µM and do not write the unit itself.

Problem: Param readout= IC50; system= SJCRH30 (human alveolar rhabdomyosarcoma) cells; entry= O=C(/C=C/c1cccc(S(=O)(=O)Nc2ccccc2)c1)NO [Belinostat] ; returns value.
Result: 0.146

----------
- Test system: RD (human embryonal rhabdomyosarcoma) cells
- test: MTT cell viability assay in RD cells
- Format: cell-based
- conditionSet: Homo sapiens, RD-S drugs, RD cells, 24 h, read-out: IC50(μM) RMS
parameterMeasured: IC50 (µM)
Please reply with the bare figure in µM and do not write the unit itself.

Problem: Please give the measured IC50 for this compound: CN(C)CCOc1ccc(-c2nc(-c3ccncc3)c(-c3ccc4c(c3)CC/C4=N\O)[nH]2)cc1 [SB590885]
Result: 2.52
